Provide the recorded selectivity ratio for the entries that follow.
# assay: Selectivity index, ratio of CC50 for dog MDCK cells to IC50 for influenza A virus A/Duck/Guangdong/99(H5N1)
# Type: toxicity
# measurement-parameters: read-out: Ratio CC50/IC50

Answered cases to consult:
compound-structure-string	value-kind	endpoint-result
COc1ccc(NC(=O)[C@]23CC[C@@H](C)[C@H](C)[C@H]2C2=CC[C@@H]4[C@@]5(C)CC[C@H](O[C@@H]6O[C@H](CO)[C@@H](O[C@@H]7O[C@@H](C)[C@H](O)[C@@H](O)[C@H]7O)[C@H](O)[C@H]6O[C@@H]6O[C@@H](C)[C@H](O)[C@@H](O)[C@H]6O)C(C)(C)[C@@H]5CC[C@@]4(C)[C@]2(C)CC3)cc1	selectivity ratio	> 472
C[C@H]1[C@H](C)CC[C@]2(C(=O)Nc3cccc(Cl)c3)CC[C@]3(C)C(=CC[C@@H]4[C@@]5(C)CC[C@H](O[C@@H]6O[C@H](CO)[C@@H](O[C@@H]7O[C@@H](C)[C@H](O)[C@@H](O)[C@H]7O)[C@H](O)[C@H]6O[C@@H]6O[C@@H](C)[C@H](O)[C@@H](O)[C@H]6O)C(C)(C)[C@@H]5CC[C@]43C)[C@H]12	selectivity ratio	> 136

### Prompt Check the records and state selectivity ratio for `C[C@H]1[C@H](C)CC[C@]2(C(=O)Nc3ccc(Cl)cc3)CC[C@]3(C)C(=CC[C@@H]4[C@@]5(C)CC[C@H](O[C@@H]6O[C@H](CO)[C@@H](O[C@@H]7O[C@@H](C)[C@H](O)[C@@H](O)[C@H]7O)[C@H](O)[C@H]6O[C@@H]6O[C@@H](C)[C@H](O)[C@@H](O)[C@H]6O)C(C)(C)[C@@H]5CC[C@]43C)[C@H]12`
### Response > 287

Each recorded value in this set is attributed to ChEMBL document CHEMBL4393734.
